Quick reference for IC50 among some molecules
Assay Target: BDK (branched-chain ketoacid dehydrogenase kinase, BCKDK; hBDK) (Homo sapiens, UniProt O14874)
Construct: purified recombinant kinase; construct details only in Supplementary Information; human stated for the crystal structures
Assay: FRET assay of BDK phosphorylation of E2 RBD-E1 peptide substrate
Format: biochemical
Condition Parameters: read-out: BDK in vitro IC50 (nM)^a
Numbers only here, please. The scale is nM.

CC(C)COc1ccc(-c2nc(-c3ccccc3C(=O)O)cs2)cn1 : 4.5

Kindly consider the entry below.
Given item `CCC1(COc2ccc(-c3csc(-c4ccccc4C(=O)O)n3)cn2)CC1` , the value recorded as its IC50 is 0.86

###

Assay Target: BDK (branched-chain ketoacid dehydrogenase kinase, BCKDK; hBDK) (Homo sapiens, UniProt O14874)
Construct: purified recombinant kinase; construct details only in Supplementary Information; human stated for the crystal structures
Assay: SPR
Type: binding
Listed below: Kd values for each entry.
Report as a plain number; the unit nM is understood.

O=C(O)c1sc2cc(F)sc2c1Cl : 84
CC(C)COc1ccc(-c2nc(-c3ccccc3C(=O)O)cs2)cn1 : 4.4

Turning now to a further compound:
Form field Kd, entry `CCC1(COc2ccc(-c3csc(-c4ccccc4C(=O)O)n3)cn2)CC1` : 0.68

###

Assay Target: Kdr Kinase (VEGFR2) (Homo sapiens, UniProt P35968)
Sequence (P35968 whole entry): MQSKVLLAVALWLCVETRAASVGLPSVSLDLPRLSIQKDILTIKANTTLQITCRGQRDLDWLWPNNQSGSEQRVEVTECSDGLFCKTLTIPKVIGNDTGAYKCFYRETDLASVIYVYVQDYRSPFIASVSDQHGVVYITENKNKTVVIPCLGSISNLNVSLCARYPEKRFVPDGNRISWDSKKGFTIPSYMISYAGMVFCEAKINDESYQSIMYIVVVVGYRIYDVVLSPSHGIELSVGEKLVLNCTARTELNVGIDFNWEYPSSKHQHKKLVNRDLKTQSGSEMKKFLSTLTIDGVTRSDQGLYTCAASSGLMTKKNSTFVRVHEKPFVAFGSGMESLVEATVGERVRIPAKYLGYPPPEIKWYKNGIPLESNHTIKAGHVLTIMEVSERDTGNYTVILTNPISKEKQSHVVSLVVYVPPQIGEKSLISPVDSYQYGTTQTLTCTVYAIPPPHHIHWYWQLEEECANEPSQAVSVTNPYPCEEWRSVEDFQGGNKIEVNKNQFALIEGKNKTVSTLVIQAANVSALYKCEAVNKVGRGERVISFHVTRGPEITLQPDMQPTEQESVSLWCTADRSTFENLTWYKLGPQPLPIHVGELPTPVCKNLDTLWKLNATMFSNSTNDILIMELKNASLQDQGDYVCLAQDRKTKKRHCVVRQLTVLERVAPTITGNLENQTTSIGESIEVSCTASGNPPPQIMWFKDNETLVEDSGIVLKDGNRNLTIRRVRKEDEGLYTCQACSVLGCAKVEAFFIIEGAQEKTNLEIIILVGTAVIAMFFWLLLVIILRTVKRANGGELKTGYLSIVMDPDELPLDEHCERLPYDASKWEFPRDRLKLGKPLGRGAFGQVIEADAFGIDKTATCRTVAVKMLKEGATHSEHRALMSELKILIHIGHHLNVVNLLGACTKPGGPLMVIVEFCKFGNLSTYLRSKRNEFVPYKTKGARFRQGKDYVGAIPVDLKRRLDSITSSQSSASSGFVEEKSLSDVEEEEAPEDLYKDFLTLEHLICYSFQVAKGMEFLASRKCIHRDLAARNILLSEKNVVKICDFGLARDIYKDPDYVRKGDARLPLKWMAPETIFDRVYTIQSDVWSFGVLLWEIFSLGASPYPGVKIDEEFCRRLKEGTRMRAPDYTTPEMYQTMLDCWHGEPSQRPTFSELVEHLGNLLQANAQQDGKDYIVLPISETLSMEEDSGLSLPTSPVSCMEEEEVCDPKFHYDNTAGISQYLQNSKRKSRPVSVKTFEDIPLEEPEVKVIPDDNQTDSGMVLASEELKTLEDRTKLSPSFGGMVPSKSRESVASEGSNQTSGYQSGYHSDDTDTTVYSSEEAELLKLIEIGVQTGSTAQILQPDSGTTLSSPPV
Result Type: IC50

Entry `O=C(O)c1sc2cc(F)sc2c1Cl` , Kdr Kinase (VEGFR2) (Homo sapiens, UniProt P35968) data, IC50 value: 76 µM

###

Assay Target: BDK (branched-chain ketoacid dehydrogenase kinase, BCKDK; hBDK) (Homo sapiens, UniProt O14874)
Construct: purified recombinant kinase; construct details only in Supplementary Information; human stated for the crystal structures
Assay: biochemical
Set-up: SPR binding to captured BDK, 1:1 binding model
Condition Parameters: read-out: BDK SPR KD
Result Type: pKd
pKd here is simply -log10 of the concentration when that concentration is written in mol/L.

Consider the reported pKd for these compounds:
Cc1ccc(-c2nc(-c3ccccc3C(=O)O)cs2)cc1 : 5.24
O=C(O)c1sc2cc(Cl)sc2c1Cl : 7.12

// field: pKd; key: `O=C(O)c1cc2sc(F)cc2s1` ; value = 6.57

###

Assay Target: BDK in human skeletal myocytes (Homo sapiens)
Construct: gene BCKDK; endogenous full kinase in human skeletal myocytes; read-out BCKDH E1alpha phosphorylation
Assay: AlphaLISA SureFire Ultra BCKDH phosphorylation in human skeletal myocytes
Assay type: cell-based
Condition Parameters: intact cells; read-out: Human skeletal myocyte IC50 (nM)^a
Result Type: IC50 (nM)
I only need the number, in nM, no unit after it.

IC50 value, target or system BDK in human skeletal myocytes (Homo sapiens), for `CC(C)COc1ccc(-c2nc(-c3ccccc3C(=O)O)cs2)cn1` : 59

###

Assay Target: BDK-BCKDHE2 (biotinylated BDK with full length non-lipoylated E2 core subunit) (Homo sapiens, UniProt O14874)
Construct: gene BCKDK; E2 with N-terminal FLAG and TEV site, DBT residues 62-482, bacterial expression, non-lipoylated; with Lipoamide acyltransferase component of branched-chain alpha-keto acid dehydrogenase complex, mitochondrial
Assay: AlphaLISA BDK-E2 protein-protein interaction, signal increase
Format: binding
Result Type: pEC50
Reminder that pEC50 is minus the log10 of a molar concentration.

According to the records, this compound `CCC1(COc2ccc(-c3csc(-c4ccccc4C(=O)O)n3)cn2)CC1` displays pEC50 of 8.66

###

Assay Target: PPAR-gamma (Homo sapiens)
Construct: gene PPARG
Sequence (P37231 1-505): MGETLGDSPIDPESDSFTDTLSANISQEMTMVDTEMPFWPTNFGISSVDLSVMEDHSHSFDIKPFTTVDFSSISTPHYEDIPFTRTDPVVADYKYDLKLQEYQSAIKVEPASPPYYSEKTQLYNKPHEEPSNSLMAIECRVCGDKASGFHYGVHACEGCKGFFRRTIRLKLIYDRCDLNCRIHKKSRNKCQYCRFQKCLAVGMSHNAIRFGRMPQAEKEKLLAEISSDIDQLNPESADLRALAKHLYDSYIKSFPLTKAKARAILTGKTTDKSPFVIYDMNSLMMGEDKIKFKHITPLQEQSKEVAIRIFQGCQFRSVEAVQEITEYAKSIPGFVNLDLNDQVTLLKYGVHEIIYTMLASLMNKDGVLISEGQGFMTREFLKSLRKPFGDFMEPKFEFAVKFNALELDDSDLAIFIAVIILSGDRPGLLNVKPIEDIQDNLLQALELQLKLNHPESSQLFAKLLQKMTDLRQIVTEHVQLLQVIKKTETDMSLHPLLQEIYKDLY
Assay: biochemical
Parameters: Cerep Bioprint off-target panel, ligand binding inhibition
Result Type: pIC50
Note: pIC50 values are expressed as the negative base-10 logarithm of concentration in M.

GET /value?item= `O=C(O)c1sc2cc(F)sc2c1Cl` &field=pIC50 returns 4.07

###

Assay Target: BDK-BCKDHE2 (biotinylated BDK with full length non-lipoylated E2 core subunit) (Homo sapiens, UniProt O14874)
Construct: gene BCKDK; E2 with N-terminal FLAG and TEV site, DBT residues 62-482, bacterial expression, non-lipoylated; with Lipoamide acyltransferase component of branched-chain alpha-keto acid dehydrogenase complex, mitochondrial
Assay: AlphaLISA BDK-E2 protein-protein interaction, signal increase
Format: binding
Condition Parameters: stabilises BDK-E2 interaction; pH […] KCl, […] MgCl2, […] DTT
Result Type: pEC50
Field pEC50 (float): negative decimal logarithm of the concentration in molar.

Note to self: pEC50 recorded for CC(C)COc1ccc(-c2nc(-c3ccccc3C(=O)O)cs2)cn1 [PF-07238025] was 7.72
